System: Rattus norvegicus
measurement.protocol: Increase in diastolic blood pressure for 0.03 ug/kg intravenous dosing of angiotensin in pithed rats
Assay type: functional, Artery

{"columns": ["molecule", "Increase in blood pressure"],
 "data": [
  ["COc1cc2nc(N3CCN(C(=O)c4ccco4)CC3)nc(N)c2cc1OC [PRAZOSIN]", "30 mmHg"],
  ["NNc1nncc2ccccc12 [HYDRALAZINE]", "8 mmHg"],
  ["Cc1ccccc1-c1nnc(NN)s1.Cl", "12 mmHg"],
  ["Nc1cc(N2CCCCC2)nc(N)[n+]1[O-] [MINOXIDIL]", "6 mmHg"]
]}

----------
Species: Rattus norvegicus
measurement.protocol: Increase in diastolic blood pressure for 3 Htz electrical stimulation in the pithed rats
Type: functional, Artery
This section presents molecules with their documented Increase in blood pressure values.
metric.name: Increase in blood pressure (mmHg)

{"columns": ["molecule", "metric.name", "numeric.readout"],
 "data": [
  ["Nc1cc(N2CCCCC2)nc(N)[n+]1[O-]", "Increase in blood pressure", 25],
  ["NNc1nncc2ccccc12 [HYDRALAZINE]", "Increase in blood pressure", 42],
  ["Cc1ccccc1-c1nnc(NN)s1.Cl", "Increase in blood pressure", 32],
  ["COc1cc2nc(N3CCN(C(=O)c4ccco4)CC3)nc(N)c2cc1OC", "Increase in blood pressure", 26]
]}

----------
Test system: Rattus norvegicus
measurement.protocol: Increase in diastolic blood pressure for 0.3 ug/kg intravenous dosing of noradrenaline in pithed rats
Type: functional, Artery
This section presents compounds with their documented Increase in blood pressure values.

{"columns": ["compound", "tested.target", "Increase in blood pressure, mmHg"],
 "data": [
  ["COc1cc2nc(N3CCN(C(=O)c4ccco4)CC3)nc(N)c2cc1OC", "Rattus norvegicus", 32],
  ["Nc1cc(N2CCCCC2)nc(N)[n+]1[O-]", "Rattus norvegicus", 25],
  ["Cc1ccccc1-c1nnc(NN)s1.Cl", "Rattus norvegicus", 16],
  ["NNc1nncc2ccccc12 [HYDRALAZINE]", "Rattus norvegicus", 15]
]}

----------
Test system: Rattus norvegicus
measurement.protocol: Increase in diastolic blood pressure for 0.3 ug/kg intravenous dosing of angiotensin in pithed rats
Format: functional, Artery
metric.name: Increase in blood pressure (mmHg)

{"columns": ["molecule", "metric.name", "numeric.readout"],
 "data": [
  ["Cc1ccccc1-c1nnc(NN)s1.Cl", "Increase in blood pressure", 50],
  ["NNc1nncc2ccccc12 [HYDRALAZINE]", "Increase in blood pressure", 38],
  ["COc1cc2nc(N3CCN(C(=O)c4ccco4)CC3)nc(N)c2cc1OC", "Increase in blood pressure", 67],
  ["Nc1cc(N2CCCCC2)nc(N)[n+]1[O-]", "Increase in blood pressure", 25]
]}
